system: NOMO1; assay: cell viability relative to DMSO control; higher = less cytotoxic; conditions: HPLM + 10% dialyzed FBS; 48 h; 0.00234 µM
measured_property: cell viability (%)
Write the value in % as a bare number.

query: Param item = CCCC[S+](=N)([O-])CCC(N)C(=O)O (stereo not given) ; retrieve measured cell viability.
result: 122

query: Consider the molecule OC[C@H]1OC(O)C[C@@H](O)[C@@H]1O (stereo not given in full) and give its measured cell viability.
result: 113

query: Any idea what cell viability was measured for CC1=CC/2=C(C=C1C)N(C[C@@H](O)[C@@H](O)[C@@H](O)CO)C/3=N/C(=O)NC(=O)C3=N2 ?
result: 119

query: What cell viability value was documented for this molecule, Cc1cc(/C=c2/sc3nc4ccccc4n3c2=O)c(C)n1-c1ccccc1 ?
result: 113

query: # input molecule: O=C(O)c1cccc(-c2noc(-c3ccccc3F)n2)c1 ; wanted: its cell viability
result: 111
